- Experimental target: T1, recombinant AdV5 hexon protein (Human adenovirus C serotype 5 (HAdV-5), UniProt P04133)
- T1 construct: source: bought: AbD Serotech
- T1 sequence (P04133 whole entry): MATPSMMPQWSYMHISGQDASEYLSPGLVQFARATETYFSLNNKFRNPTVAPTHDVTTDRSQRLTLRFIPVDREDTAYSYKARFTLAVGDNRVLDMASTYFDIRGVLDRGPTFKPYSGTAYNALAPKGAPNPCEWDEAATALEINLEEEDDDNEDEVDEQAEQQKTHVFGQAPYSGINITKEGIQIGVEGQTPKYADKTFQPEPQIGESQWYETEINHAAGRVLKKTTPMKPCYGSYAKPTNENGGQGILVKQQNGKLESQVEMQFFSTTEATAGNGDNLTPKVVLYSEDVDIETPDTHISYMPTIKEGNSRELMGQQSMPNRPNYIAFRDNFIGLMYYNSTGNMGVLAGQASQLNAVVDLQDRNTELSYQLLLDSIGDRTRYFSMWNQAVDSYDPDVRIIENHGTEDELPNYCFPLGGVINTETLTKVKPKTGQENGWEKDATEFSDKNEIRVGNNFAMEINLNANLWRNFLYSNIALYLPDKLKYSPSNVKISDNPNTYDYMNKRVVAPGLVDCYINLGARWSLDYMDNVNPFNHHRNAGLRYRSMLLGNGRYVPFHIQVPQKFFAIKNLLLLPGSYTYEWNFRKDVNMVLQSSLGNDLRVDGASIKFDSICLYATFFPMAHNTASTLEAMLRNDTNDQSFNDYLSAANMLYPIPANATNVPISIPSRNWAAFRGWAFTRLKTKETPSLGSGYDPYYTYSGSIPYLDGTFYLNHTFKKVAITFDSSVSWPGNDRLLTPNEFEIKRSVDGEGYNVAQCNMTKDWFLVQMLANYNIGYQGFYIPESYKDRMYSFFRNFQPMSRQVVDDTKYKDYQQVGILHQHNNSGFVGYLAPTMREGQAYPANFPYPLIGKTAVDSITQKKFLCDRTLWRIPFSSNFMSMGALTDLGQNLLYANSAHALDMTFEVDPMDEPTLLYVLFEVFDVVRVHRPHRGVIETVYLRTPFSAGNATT
- Experimental protocol: SPR
- Applied conditions: both partners purified
// returns Not satisfied unless koff is strictly below 0.0008 s⁻¹, in which case Satisfied

• h9C12 Fab T55S (Fab, V domains shown, source: HEK293E, transiently co-transfected, purified (CaptureSelect CH1, SEC Superdex 75)) VH: VQLKQSGPGLLQPSQRLSITCTVSGFSLGRYGVHWIRQSPGKGLEWLGVIWRGGSTDYNAVFMSRLSINKDDSKSQVFFTMNSLRPDDTAIYYCARQGSNFPLAYWGQGTLVTVSA VL: NIVMTQTPKFLLVSIGDSITITCKASQSVTNDAAWYQKKPGQSPQLLIYQASTRYTGVPDRFSGSGYGTDFTFTISAVQAEDLAVYFCHQDYSSPLTFGAGTKLELK = Not satisfied
• h9C12 Fab N100A (Fab, V domains shown, source: HEK293E, transiently co-transfected, purified (CaptureSelect CH1, SEC Superdex 75)) VH: VQLKQSGPGLLQPSQRLSITCTVSGFSLGRYGVHWIRQSPGKGLEWLGVIWRGGTTDYNAVFMSRLSINKDDSKSQVFFTMNSLRPDDTAIYYCARQGSAFPLAYWGQGTLVTVSA VL: NIVMTQTPKFLLVSIGDSITITCKASQSVTNDAAWYQKKPGQSPQLLIYQASTRYTGVPDRFSGSGYGTDFTFTISAVQAEDLAVYFCHQDYSSPLTFGAGTKLELK = Not satisfied
• h9C12 Fab G29R/R30S (Fab, V domains shown, source: HEK293E, transiently co-transfected, purified (CaptureSelect CH1, SEC Superdex 75)) VH: VQLKQSGPGLLQPSQRLSITCTVSGFSLRSYGVHWIRQSPGKGLEWLGVIWRGGTTDYNAVFMSRLSINKDDSKSQVFFTMNSLRPDDTAIYYCARQGSNFPLAYWGQGTLVTVSA VL: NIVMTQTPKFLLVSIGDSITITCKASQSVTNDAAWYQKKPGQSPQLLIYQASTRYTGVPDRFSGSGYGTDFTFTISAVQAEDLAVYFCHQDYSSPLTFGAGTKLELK = Not satisfied
• h9C12 Fab G53P (Fab, V domains shown, source: HEK293E, transiently co-transfected, purified (CaptureSelect CH1, SEC Superdex 75)) VH: VQLKQSGPGLLQPSQRLSITCTVSGFSLGRYGVHWIRQSPGKGLEWLGVIWRPGTTDYNAVFMSRLSINKDDSKSQVFFTMNSLRPDDTAIYYCARQGSNFPLAYWGQGTLVTVSA VL: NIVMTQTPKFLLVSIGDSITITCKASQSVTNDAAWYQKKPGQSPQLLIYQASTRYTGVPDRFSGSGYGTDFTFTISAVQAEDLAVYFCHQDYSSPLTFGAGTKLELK = Not satisfied
• 9C12 Fab (original mouse format, SPR) (Fab, V domains shown, also called mouse WT 9C12; source: gene fragment synthesized as cDNA; host stated only for the h9C12 variants (HEK293E)) VH: VQLKQSGPGLLQPSQRLSITCTVSGFSLGRYGVHWIRQSPGKGLEWLGVIWRGGTTDYNAVFMSRLSINKDDSKSQVFFTMNSLRPDDTAIYYCARQGSNFPLAYWGQGTLVTVSA VL: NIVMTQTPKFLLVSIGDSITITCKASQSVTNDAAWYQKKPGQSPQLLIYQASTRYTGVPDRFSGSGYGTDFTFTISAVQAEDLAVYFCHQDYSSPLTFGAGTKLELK = Satisfied
• h9C12 Fab G98C/S99H (Fab, V domains shown, source: HEK293E, transiently co-transfected, purified (CaptureSelect CH1, SEC Superdex 75)) VH: VQLKQSGPGLLQPSQRLSITCTVSGFSLGRYGVHWIRQSPGKGLEWLGVIWRGGTTDYNAVFMSRLSINKDDSKSQVFFTMNSLRPDDTAIYYCARQCHNFPLAYWGQGTLVTVSA VL: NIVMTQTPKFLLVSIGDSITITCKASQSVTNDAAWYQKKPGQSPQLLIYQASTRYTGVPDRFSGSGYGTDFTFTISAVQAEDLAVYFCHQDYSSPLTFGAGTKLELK = Not satisfied
• h9C12 Fab (wild type) (Fab, V domains shown, also called WT h9C12; humanized 9C12; source: HEK293E, transiently co-transfected, purified (CaptureSelect CH1, SEC Superdex 75)) VH: VQLKQSGPGLLQPSQRLSITCTVSGFSLGRYGVHWIRQSPGKGLEWLGVIWRGGTTDYNAVFMSRLSINKDDSKSQVFFTMNSLRPDDTAIYYCARQGSNFPLAYWGQGTLVTVSA VL: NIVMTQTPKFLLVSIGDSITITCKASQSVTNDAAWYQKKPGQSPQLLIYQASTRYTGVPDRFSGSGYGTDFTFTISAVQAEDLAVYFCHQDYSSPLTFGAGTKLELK = Satisfied
